# METHOD_NOTES: NCI Yeast Anticancer Drug Screen. Data for the rad50 strain (AID 155);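 note: 0% = growth of vehicle-only cultures of the same strain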
# STUDY_CONDITIONS: S. cerevisiae rad50 strain growth inhibition; at 50.0 µM; active compounds read high
About 79,000 compounds went through this panel and 15% of them were active in at least one assay; those are over-represented in the sample as a whole.
This listing pairs compounds with measured growth inhibition.
Could you give me the number in %? Just the number is fine.

>  <COMPOUND>
CCCCCC(O)(CCCCC)CCCCCCCCC1=C(O)c2ccccc2C(=O)C1=O

>  <growth inhibition (%)>
-17.7

$$$$
>  <COMPOUND>
Cc1ccc(N2C(=O)CC(Sc3ccccc3N)C2=O)cc1 (stereo unspecified)

>  <growth inhibition (%)>
-8.75

$$$$

QUERY: Record request: growth inhibition value, item OC1CCC2CN3CCc4c([nH]c5ccccc45)C3CC2C1 (stereo unspecified)
RESULT: 23.6

QUERY: Record request: growth inhibition value, item C[C@@H]1C[C@](O)([C@@H](C)Cl)C(=O)O[C@@H]2CCN3CC=C(COC(=O)[C@]1(C)O)[C@H]23
RESULT: -14.2

QUERY: Record request: growth inhibition value, item COc1ccc(-c2coc3c4c(ccc3c2=O)OCO4)cc1OC
RESULT: 3.6

QUERY: Record request: growth inhibition value, item CC1=NN(c2ccccc2)C(=O)/C1=C\c1ccc(N(CCC#N)CCC#N)cc1
RESULT: 6.85

----------
# METHOD_NOTES: NCI Yeast Anticancer Drug Screen. Data for the mlh1 rad18 strain (AID 175)
# STUDY_CONDITIONS: S. cerevisiae mlh1 rad18 strain growth inhibition; at 50.0 µM; active compounds read high
About 79,000 compounds went through this panel and 15% of them were active in at least one assay; those are over-represented in the sample as a whole.
Could you label it satisfied if measured growth inhibition is -10% or higher, and not satisfied otherwise?

// below: answered molecules
>  <MOLECULE>
COc1ccc(-c2nc3ccccc3c(=S)n2OC(C)=O)cc1

>  <CATEGORY>
satisfied

$$$$
>  <MOLECULE>
C=CCNC1=C2C[C@@H](C)C[C@@H](OC)[C@@H](OC(=O)CCCN)[C@H](C)/C=C(\C)[C@@H](OC(N)=O)[C@H](OC)/C=C\C=C(/C)C(=O)NC(=CC1=O)C2=O

>  <CATEGORY>
satisfied

$$$$
>  <MOLECULE>
O=c1c(=O)n(CCO)n(CCO)c(=O)n1CCO

>  <CATEGORY>
not satisfied

$$$$
>  <MOLECULE>
NC(=O)NC(CCCN=C(N)N)C(=O)O (stereo unspecified)

>  <CATEGORY>
not satisfied

$$$$
>  <MOLECULE>
CCC/C(Cl)=N/OC(=O)Nc1cccc(F)c1

>  <CATEGORY>
satisfied

$$$$
>  <MOLECULE>
C=C1CC2(C)CCC(OC(=O)C3(C)OC3C)C(C)(OC(C)=O)C2CC1=C(C)C (stereo unspecified)

>  <CATEGORY>
not satisfied

$$$$
>  <MOLECULE>
CCOc1cc2c(cc1O)C=C[C@@H]1[C@@H]2CC[C@]2(C)[C@@H](O)CC[C@@H]12

>  <CATEGORY>
satisfied

$$$$
>  <MOLECULE>
Cc1ccc(/C=C2/N=C(N/N=C\c3ccccc3)NC2=O)cc1

>  <CATEGORY>
not satisfied

$$$$

QUERY: Please indicate if the recorded growth inhibition for CC(C)c1cc(C(=O)O)c(O)c(C(C)C)c1.CC(C)c1cc(C(=O)O)c(O)c(C(C)C)c1.[Cu] meets or exceeds -10%.
RESULT: satisfied

QUERY: Please indicate if the recorded growth inhibition for Cc1cccc(C)c1NC(=S)N(C)C meets or exceeds -10%.
RESULT: satisfied

QUERY: Please indicate if the recorded growth inhibition for Cn1/c(=N/Sc2nnnn2-c2ccccc2)sc2ccccc21 meets or exceeds -10%.
RESULT: satisfied

QUERY: Please indicate if the recorded growth inhibition for S=C(S)N1CCC(CCCC2CCN(C(=S)S)CC2)CC1 meets or exceeds -10%.
RESULT: not satisfied

QUERY: Please indicate if the recorded growth inhibition for N/C(Cc1ccc(N)cc1)=N\O meets or exceeds -10%.
RESULT: not satisfied

QUERY: Please indicate if the recorded growth inhibition for C=C1CCN(c2ccccc2)C1=O meets or exceeds -10%.
RESULT: satisfied

QUERY: Please indicate if the recorded growth inhibition for CCCCCC(O)(CCCCC)CCCCCCCCC1=C(O)c2ccccc2C(=O)C1=O meets or exceeds -10%.
RESULT: not satisfied

QUERY: Please indicate if the recorded growth inhibition for O=CNC(Cc1ccc(O)cc1)C(=O)O (stereo unspecified) meets or exceeds -10%.
RESULT: satisfied

QUERY: Please indicate if the recorded growth inhibition for CCCCCCCCCCCCCCCCOc1ccc(C(=O)NN)cc1N meets or exceeds -10%.
RESULT: not satisfied

QUERY: Please indicate if the recorded growth inhibition for CC(/C=N/N1C(=O)c2ccccc2C1=O)c1ccccc1 (stereo unspecified) meets or exceeds -10%.
RESULT: not satisfied

----------
# METHOD_NOTES: NCI Yeast Anticancer Drug Screen. Data for the sgs1 mgt1 strain (AID 161);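 note: 0% = growth of cultures given vehicle only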
# STUDY_CONDITIONS: S. cerevisiae sgs1 mgt1 strain, at 50.0 µM, active compounds read high
About 79,000 compounds went through this panel and 15% of them were active in at least one assay; those are over-represented in the sample as a whole. Activity calls are given as the source filed them. Cut-off read from the data, not from the text of the source: active = growth inhibition above about 70%; inactive = the rest.
VALUE_KIND: growth inhibition

>  <COMPOUND>
Cc1ccc(NC(=O)/C(=N\NC(N)=O)c2c(O)c3ccccc3[nH]c2=O)cc1

>  <growth inhibition>
-10.5% (inactive)

$$$$
>  <COMPOUND>
Cc1nc(-[n+]2nc(-c3ccccc3)nn2-c2ccccc2)sc1C

>  <growth inhibition>
-18.9% (inactive)

$$$$
>  <COMPOUND>
O=C1c2ccccc2-c2c1c1ccccc1c(=O)n2-c1cccnc1

>  <growth inhibition>
26.2% (inactive)

$$$$

QUERY: Record request: growth inhibition value, item CCCCC1C(=O)N(c2ccc(S(=O)(=O)Nc3ccccn3)cc2)N(c2ccc(O)c(C(=O)O)c2)C1=O (configuration not stated)
RESULT: 6.7% (inactive)

QUERY: Record request: growth inhibition value, item CCOC(=O)C(=O)C(CCC(=O)c1ccc2ccccc2c1O)C(=O)OCC (configuration not stated)
RESULT: -2.9% (inactive)

QUERY: Record request: growth inhibition value, item CNC(=S)c1nnsc1N
RESULT: 21.6% (inactive)

QUERY: Record request: growth inhibition value, item O=C(CCc1ccc(O)c(O)c1)c1ccc(O)c(O)c1O
RESULT: 9.1% (inactive)

----------
# METHOD_NOTES: NCI Yeast Anticancer Drug Screen. Data for the bub3 strain (AID 167)
# STUDY_CONDITIONS: S. cerevisiae bub3 mutant strain, at 50.0 µM, active compounds read high
This is part of a sample that, as a whole, favours compounds with a hit. Of some 79,000 tested, about 15% had one in any assay. Active and inactive are the calls of the source. No stated cut-off is given here; in the data, active means growth inhibition above about 70%; inactive means the rest.
This listing pairs compounds with measured growth inhibition.

These recorded examples may help you get a feel for the data.
>  <COMPOUND>
COc1ccc(/C=C2/NC(=S)N=C2Cl)cc1

>  <growth inhibition>
18.1% (inactive)

$$$$
>  <COMPOUND>
COc1cc2oc3c(c(=O)c2c(O)c1/C=C/C(C)C)CCC(C)(C)Oc1cc(O)ccc1-3

>  <growth inhibition>
39.5% (inactive)

$$$$
>  <COMPOUND>
CC1OC(Oc2c(-c3cc(O)c(O)c(O)c3)oc3cc(O)cc(O)c3c2=O)C(O)C(O)C1O (centres undefined)

>  <growth inhibition>
-21.2% (inactive)

$$$$
>  <COMPOUND>
COC(=O)C(=O)C(C(=O)C(=O)Nc1ccccc1OC)c1nc2ccc([N+](=O)[O-])cc2[nH]c1=O (centres undefined)

>  <growth inhibition>
36.1% (inactive)

$$$$
>  <COMPOUND>
O=C1c2cccnc2-c2nccc3ccnc1c23

>  <growth inhibition>
57.5% (inactive)

$$$$
>  <COMPOUND>
CNC(=O)c1cccnc1

>  <growth inhibition>
-12.2% (inactive)

$$$$

QUERY: Record request: growth inhibition value, item Cc1ccc(/C=N/Nc2cnccn2)s1
RESULT: -41.2% (inactive)

QUERY: Record request: growth inhibition value, item CNC(=S)/C(=N\Nc1nc[nH]c1C(N)=O)C(N)=S
RESULT: 15.1% (inactive)

QUERY: Record request: growth inhibition value, item N=C1N=C(N)CS1
RESULT: 25.9% (inactive)

----------
This listing pairs compounds with measured growth inhibition.
# METHOD_NOTES: NCI Yeast Anticancer Drug Screen. Data for the rad50 strain (AID 155);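 note: 0% = growth of vehicle-only cultures of the same strain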
# STUDY_CONDITIONS: S. cerevisiae rad50 strain growth inhibition; at 50.0 µM; active compounds read high
Compounds without any hit were thinned out: in the full panel of roughly 79,000, 15% have a hit.
Could you give me the number in %? Just the number is fine.

These recorded examples may help you get a feel for the data.
>  <TEST_SMILES>
Cc1cccc(C)c1NC(=S)N(C)C

>  <growth inhibition, %>
-8.8

$$$$
>  <TEST_SMILES>
OCc1ccccn1

>  <growth inhibition, %>
-10.7

$$$$
>  <TEST_SMILES>
C[C@]12CC[C@@H]3c4ccc(OS(N)(=O)=O)cc4CC[C@H]3[C@@H]1CCC2=O

>  <growth inhibition, %>
2.35

$$$$
>  <TEST_SMILES>
N/C(Cc1ccc(N)cc1)=N\O

>  <growth inhibition, %>
-17.4

$$$$
>  <TEST_SMILES>
CNc1nc2c(C)ccc3[nH]c(N(C)C)nc3c-2n1

>  <growth inhibition, %>
14.2

$$$$

QUERY: Record request: growth inhibition value, item O=c1oc(-c2ccccc2)nc2cc(Cl)ccc12
RESULT: -0.3

QUERY: Record request: growth inhibition value, item O=C(CN1C(=O)c2ccccc2C1=O)c1ccc(Br)cc1
RESULT: 14.2

QUERY: Record request: growth inhibition value, item COc1cccc(N2C(=O)CSC2=S)c1
RESULT: 32.7

QUERY: Record request: growth inhibition value, item O=C1Nc2ccccc2CCc2ccccc21
RESULT: -18.1
